molecular target: TYK2 (Homo sapiens); construct: Degradation of TYK2 in cells was quantitatively measured using Meso Scale Discovery (MSD) technology; endogenous in cells; host or cells: OCI-LY10; assay: TYK2 MSD degradation in OCI-LY10 cells; assay type: cell-based; details: TYK2 degradation in OCI-LY10 cells, 4 to 24 hours incubation, read-out: TYK2 MSD OCI-LY10 Rel-DC50
Sequence (P29597 whole entry): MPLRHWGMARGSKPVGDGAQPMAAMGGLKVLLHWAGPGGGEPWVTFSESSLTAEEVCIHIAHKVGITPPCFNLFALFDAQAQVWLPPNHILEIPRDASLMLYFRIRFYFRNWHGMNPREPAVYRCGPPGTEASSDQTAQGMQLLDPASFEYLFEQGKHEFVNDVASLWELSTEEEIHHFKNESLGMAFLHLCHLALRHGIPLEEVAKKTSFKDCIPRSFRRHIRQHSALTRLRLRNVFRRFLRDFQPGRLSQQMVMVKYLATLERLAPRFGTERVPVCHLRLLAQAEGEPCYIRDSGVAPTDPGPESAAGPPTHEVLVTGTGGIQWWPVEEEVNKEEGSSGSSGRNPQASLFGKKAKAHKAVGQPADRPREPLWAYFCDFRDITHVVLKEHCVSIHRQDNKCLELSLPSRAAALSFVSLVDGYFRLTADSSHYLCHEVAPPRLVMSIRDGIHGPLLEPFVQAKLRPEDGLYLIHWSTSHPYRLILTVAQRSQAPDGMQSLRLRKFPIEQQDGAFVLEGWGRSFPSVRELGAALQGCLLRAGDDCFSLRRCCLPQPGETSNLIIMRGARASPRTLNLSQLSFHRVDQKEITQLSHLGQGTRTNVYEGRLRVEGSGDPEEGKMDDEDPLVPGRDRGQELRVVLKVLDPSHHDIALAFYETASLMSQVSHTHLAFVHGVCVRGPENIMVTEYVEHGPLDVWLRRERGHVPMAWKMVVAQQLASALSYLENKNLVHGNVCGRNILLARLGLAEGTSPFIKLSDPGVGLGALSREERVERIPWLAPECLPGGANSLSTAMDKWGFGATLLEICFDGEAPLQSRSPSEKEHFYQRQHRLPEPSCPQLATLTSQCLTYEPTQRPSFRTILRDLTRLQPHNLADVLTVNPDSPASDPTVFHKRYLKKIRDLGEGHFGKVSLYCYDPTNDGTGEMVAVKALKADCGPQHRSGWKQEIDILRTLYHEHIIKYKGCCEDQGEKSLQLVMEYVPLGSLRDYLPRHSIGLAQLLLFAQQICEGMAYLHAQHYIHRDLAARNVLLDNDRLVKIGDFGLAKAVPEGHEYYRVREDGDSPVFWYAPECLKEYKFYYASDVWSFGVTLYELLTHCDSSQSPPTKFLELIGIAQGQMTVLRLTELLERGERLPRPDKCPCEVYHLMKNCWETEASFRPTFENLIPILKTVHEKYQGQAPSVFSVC
recorded.metric: DC50

[[record]]
compound = "CNc1cc(N2CCc3c(-c4ccc(N5CCC6(CCN(Cc7ccc(N8CCC(=O)NC8=O)c(Cl)c7)CC6)CC5)cn4)cccc32)nn2c(C(=O)N[C@@H]3C[C@@H]3F)cnc12"
recorded_metric = "DC50"
experimental_result = "0.01 to 0.1 µM"

[[record]]
compound = "CNc1cc(N2CCc3c(-c4ccc(CN5CCN(C6CCN(C(=O)c7cc(C)c(Cl)c(N8CCC(=O)NC8=O)c7)CC6(F)F)CC5)cn4)cccc32)nn2c(C(=O)N[C@@H]3CC[C@H]3OC)cnc12 (some centres unmarked)"
recorded_metric = "DC50"
experimental_result = "< 0.001 µM"

[[record]]
compound = "CNc1cc(N2CCc3c(-c4cc(CN5CCC6(CC5)CN(c5ccc7c(c5)n(C)c(=O)n7C5CCC(=O)NC5=O)C6)ccn4)cccc32)nn2c(C(=O)NC3CC3)cnc12 (centres unmarked)"
recorded_metric = "DC50"
experimental_result = "< 0.01 µM"

[[record]]
compound = "CNc1cc(N2CCc3c(N4CCN(C5CCN(C6CCN(C(=O)c7ccc(Cl)c(N8CCC(=O)NC8=O)c7)CC6)CC5)CC4)cccc32)nn2c(C(=O)N[C@@H]3C[C@@H]3F)cnc12"
recorded_metric = "DC50"
experimental_result = "> 0.1 µM"

[[record]]
compound = "CNc1cc(N2CCc3c(-c4ccc(CN5CCC(N6CCN(c7ccc8c(c7)n(C)c(=O)n8C7CCC(=O)NC7=O)CC6)C(F)(F)C5)cn4)cc(F)cc32)nn2c(C(=O)NC3CC3)cnc12 (centres unmarked)"
recorded_metric = "DC50"
experimental_result = "< 0.01 µM"


====

# DC50 listing for each entry below
molecular target: TYK2 (Homo sapiens); construct: Degradation of TYK2 in cells was quantitatively measured using Meso Scale Discovery (MSD) technology; endogenous in cells; host or cells: OCI-LY10; assay: TYK2 MSD degradation in OCI-LY10 cells; format: cell-based; conditions: TYK2 degradation in OCI-LY10 cells, 4 to 24 hours incubation, read-out: TYK2 MSD OCI-LY10 Rel-DC50
recorded.metric: DC50

[[record]]
compound = "CNc1cc(N2CCc3c(-c4ncc(CN5CC6(CCN(C(=O)c7ccc(C)c(N8CCC(=O)NC8=O)c7)CC6(F)F)C5)cc4F)cccc32)nn2c(C(=O)N[C@@H]3CC[C@H]3OC)cnc12"
experimental_result = "< 1 nM"

[[record]]
compound = "CNc1cc(N2CCc3c(N4CC(CN5CCC(N6CCN(c7ccc8c(c7)n(C)c(=O)n8C7CCC(=O)NC7=O)CC6)C(F)(F)C5)C4)cccc32)nn2c(C(=O)NC3CC3)cnc12 (stereo not drawn)"
experimental_result = "< 1 nM"

[[record]]
compound = "CNc1cc(N2CCc3c(-c4ccc(CN5CC6(CCN(C(=O)c7ccc(C(F)(F)F)c(N8CCC(=O)NC8=O)c7)CC6(F)F)C5)cn4)cccc32)nn2c(C(=O)N[C@@H]3C[C@@H]3F)cnc12"
experimental_result = "< 10 nM"

